tgt: T1, Human BCMA (human, UniProt Q02223 1-54, limits assumed)
T1 construct: Soluble analyte in SPR; construct not described; also called huBCMA; B-cell maturation antigen
T1 sequence (looked up): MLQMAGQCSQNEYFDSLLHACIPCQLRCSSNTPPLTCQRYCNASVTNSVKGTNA
experimental_protocol: SPR, IgG immobilised, 37 C
Consider the following binders; for each one, report its koff.
# number only, unit s⁻¹ dropped from output

Quick one: koff of L3.PY/L3.KY/H3.TAQ (antibody, V domains shown, IgG) VH: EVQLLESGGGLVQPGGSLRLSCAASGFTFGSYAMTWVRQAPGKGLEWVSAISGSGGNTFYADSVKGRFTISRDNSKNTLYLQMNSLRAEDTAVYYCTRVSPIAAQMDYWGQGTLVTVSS VL: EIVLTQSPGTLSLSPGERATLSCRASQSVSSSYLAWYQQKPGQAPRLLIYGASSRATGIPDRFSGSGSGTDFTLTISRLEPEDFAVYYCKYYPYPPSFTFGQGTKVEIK ?
0.000649

Using the record for L3.PY/L3.KF/H2.QL (antibody, V domains shown, IgG) VH: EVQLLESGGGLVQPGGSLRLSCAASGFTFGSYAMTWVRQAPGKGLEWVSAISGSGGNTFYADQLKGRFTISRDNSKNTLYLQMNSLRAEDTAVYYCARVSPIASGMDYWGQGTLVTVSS VL: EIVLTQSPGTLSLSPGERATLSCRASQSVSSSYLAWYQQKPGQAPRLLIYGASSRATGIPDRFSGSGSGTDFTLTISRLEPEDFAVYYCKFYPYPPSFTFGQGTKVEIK , report its koff.
0.00125

koff for L3.PY/L1.PH/H2.HA (antibody, V domains shown, IgG) VH: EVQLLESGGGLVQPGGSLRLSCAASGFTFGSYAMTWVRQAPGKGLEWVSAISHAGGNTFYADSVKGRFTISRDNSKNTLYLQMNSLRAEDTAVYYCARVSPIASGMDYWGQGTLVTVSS VL: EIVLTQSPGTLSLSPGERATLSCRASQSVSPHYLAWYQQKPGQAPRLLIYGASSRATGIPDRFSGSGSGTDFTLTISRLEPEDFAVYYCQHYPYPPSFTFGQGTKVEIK ?
0.00116

What measured koff goes with L3.PY/L3.KF/H3.AQ (antibody, V domains shown, IgG) VH: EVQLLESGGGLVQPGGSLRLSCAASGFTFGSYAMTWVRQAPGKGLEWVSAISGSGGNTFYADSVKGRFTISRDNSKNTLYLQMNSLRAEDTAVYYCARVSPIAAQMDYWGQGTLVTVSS VL: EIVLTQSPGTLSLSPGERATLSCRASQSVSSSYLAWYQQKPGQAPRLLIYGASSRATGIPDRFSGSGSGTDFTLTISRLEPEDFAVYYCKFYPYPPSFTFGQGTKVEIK ?
0.00227

Recorded koff of L3.PY/L1.AH/P6E01 (antibody, V domains shown, IgG) VH: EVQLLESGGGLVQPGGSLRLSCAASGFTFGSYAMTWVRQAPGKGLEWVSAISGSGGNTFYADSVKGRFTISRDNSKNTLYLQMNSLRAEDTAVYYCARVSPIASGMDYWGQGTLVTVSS VL: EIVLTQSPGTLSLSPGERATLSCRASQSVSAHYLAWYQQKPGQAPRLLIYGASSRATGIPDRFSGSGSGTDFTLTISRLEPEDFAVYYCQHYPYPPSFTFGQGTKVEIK , please.
0.00126
